System: DU-145 prostate
Experiment: NCI tumour cell line growth inhibition, 48 h; in the data active means GI50 below about 0.43 µM; inactive means the rest
Assign a class; possible classes are TRUE for active, FALSE for inactive

Example entries and their recorded answers appear below.
| Compound | Group |
| --- | --- |
| CCC1CCc2nc3sc(C(=O)Nc4cccc(F)c4)c(N)c3cc2C1 (stereo not drawn) | FALSE |
| COc1cc(/C=C/C(=O)c2ccc(NC(=O)CN3CCN(c4cc5c(cc4F)c(=O)c(C(=O)O)cn5C4CC4)CC3)cc2)cc(OC)c1OC | FALSE |
| Cc1cc(Cl)ccc1NC(=O)c1cc2ccccc2cc1O | FALSE |
| Cc1c(COc2cc(OCc3cccc(C#N)c3)c(CN3C[C@H](O)C[C@@H]3C(=O)O)cc2Cl)cccc1-c1ccc2c(c1)OCCO2 | FALSE |

Any idea what this test logged for CC1(C)[C@@H](O[C@@H]2OC[C@@H](O[C@@H]3O[C@H](CO)[C@@H](O)[C@H](O)[C@H]3O[C@@H]3OC[C@@H](O)[C@H](O)[C@H]3O)[C@H](O)[C@H]2O[C@@H]2O[C@H](CO)[C@@H](O)[C@H](O)[C@H]2O)CC[C@]2(C)[C@H]3CC[C@]45OC[C@@]6(CC[C@](C)(C=O)C[C@H]64)[C@H](O)C[C@@]5(C)[C@]3(C)CC[C@@H]12 ?
FALSE

Test call for this compound, please: C[C@@H](CO)[C@@H]1CCC=C2CC[C@]3(C)[C@H](CC[C@@H]4[C@@]5(C)CCCNC(C)(C)[C@@H]5CC[C@]43C)[C@H]21
FALSE

====

Listed below: TGI values for each entry.
System: OVCAR-8 ovarian
Assay: NCI tumour cell line growth inhibition, 48 h

In the examples that follow, each entry is paired with its recorded TGI.
| Molecule | TGI |
| --- | --- |
| CN(C)c1nncc2[nH]cnc12 | > 100 µM |
| CCCCCCCCCCCCCC[S+](C)C | 3.58 µM |

Answer with the recorded TGI of Fc1ccccc1C1CC(c2ccc3ccccc3c2)=Nc2ccccc2S1 (centres undefined) only.
> 100 µM

Tell me TGI reported for CCOC(=O)NC(NC1=NCCS1)(C(=O)OCC)C(F)(F)F (centres undefined)
> 100 µM

Give a short answer stating reported TGI for CSCCCNC(=O)c1csc(-c2csc(C(CNC(=O)OC(C)(C)C)CNC(=O)OC(C)(C)C)n2)n1 .
> 100 µM

====

Tested on: PC-3 prostate
Assay: NCI tumour cell line growth inhibition, 48 h
Listed below: TGI values for each entry.
Give your result in µM as a bare value.

| Compound | Measure Unit | Recorded Value |
| --- | --- | --- |
| COc1ccc(OC)c(CC2CCc3nc(N)nc(N)c3C2)c1 (centres undefined) | µM | 52.7 |

Dear colleague, please send me the reported TGI for COc1cc(O)c(C(=O)/C=C/c2ccc(O)cc2)c(O)c1[C@@H]1C[C@H](CCc2ccc(O)cc2)O[C@H](c2ccc(O)cc2)C1 when you can.
12.5

Return the recorded TGI value; entry: NCCCNC1(c2cc3ccccc3s2)CCCCC1
21

Give the reported TGI for this compound. Cc1cccc2c(=O)c3c(sc12)c(NCCNCCO)nc1ccccc13
2.73

====

Test system: DU-145 prostate
Assay: NCI tumour cell line growth inhibition, 48 h
As shown below, each of these molecules has a reported TGI value.
// return numeric value only (unit: µM, not printed)

| Molecule | TGI, µM |
| --- | --- |
| CN(C)c1ccccc1CN1CCCN(Cc2ccccc2N(C)C)C1c1ccncc1 | 31.5 |
| CSc1c(C#N)c(N)nc2c(N=Nc3ccc(Cl)cc3)c(N)nn12 | 5.7 |
| Cc1cccc2c(=O)c3c(sc12)c(NCCNCCO)nc1ccccc13 | 3.12 |
| CC1OC(OC2C(O[C@H]3CC[C@@]4(C)C(=CC[C@H]5[C@@H]6C[C@@H]7O[C@]8(CC[C@H](C)CN8)[C@@H](C)[C@@H]7[C@@]6(C)CC[C@@H]54)C3)OC(CO)C(O)C2OC2OC(CO)C(O)C(O)C2O)C(O)C(O)C1O (stereo partly drawn) | 33.6 |
| CO/N=C(\C)COc1ccc2c(=O)c(-c3ccccc3)coc2c1 | 52.7 |

Give the value of TGI reported for the following: O=C1/C(=C/c2cccc(Br)c2)CSC/C1=C\c1cccc(Br)c1
24.3

Read the entry Oc1[nH]c2ccc(Cl)cc2c1/C=c1/ccc2c(c1)N=C(c1ccc(F)cc1)N=2 and write its reported TGI.
5.06

Return the recorded TGI value; entry: CC(C)[Si](OC1=CCC[C@H]2NC(=O)[C@@H](Cc3ccccc3)[C@@]12C)(C(C)C)C(C)C
22.1

Entry N#CSCC1CC(O)(c2ccccc2)CC(c2ccc(F)cc2)O1 (stereo not drawn) needs its TGI filled in; supply it.
3.45

Quickly give me recorded TGI for O=C(NCc1ccc(Cn2c(=O)sn(-c3ccccc3)c2=O)cc1)OCc1ccc2c(Br)cc(Br)c(O)c2n1
2.19

====

Tested on: HCT-116 colon
Assay: NCI tumour cell line growth inhibition, 48 h
Listed next: entries and their corresponding TGI.

Example entries begin here.
| Molecule | TGI |
| --- | --- |
| CC(C)(C)c1cc2c3c(c1)C(C(F)(F)F)(C(F)(F)F)O[Te]3(C)OC2(C(F)(F)F)C(F)(F)F | > 100 µM |
| CC(=O)O[C@]1(C(C)=O)CC[C@H]2[C@@H]3C=C(C)C4=CC(=O)CC[C@]4(C)[C@H]3CC[C@@]21C | > 100 µM |
| CCCCCCCCCc1cccc(N2C(N)=NC(N)=NC2(C)C)c1 | 1.15 µM |

Tell me measured TGI for CC(=O)c1ccc(NC(=O)C(=O)Nn2c(=S)[nH]c3ccccc3c2=O)cc1 please.
> 100 µM

Fill in TGI for record CC1OC(OC2C(O[C@H]3CC[C@@]4(C)C(=CC[C@H]5[C@@H]6C[C@@H]7O[C@]8(CC[C@H](C)CN8)[C@@H](C)[C@@H]7[C@@]6(C)CC[C@@H]54)C3)OC(CO)C(O)C2OC2OC(CO)C(O)C(O)C2O)C(O)C(O)C1O (some centres undefined)
39.9 µM

Please give measured TGI of the following entry: CCNC(=O)c1cc2c(-c3cc(C(C)(C)O)ccc3Oc3c(C)cc(F)cc3C)cn(C)c(=O)c2[nH]1
12.5 µM

Quickly give me recorded TGI for O=C1/C(=C/c2cccc(Br)c2)CSC/C1=C\c1cccc(Br)c1
4.33 µM

For the molecule CCOC(=O)C(=Cc1ccc(Oc2ccccc2)cc1)C(=O)OCC , report TGI.
5.93 µM

Quote TGI reported for O=C(O)/C(=C/C=C/c1ccccc1)c1csc(-c2nc(/C(=C\C=C\c3ccccc3)C(=O)O)cs2)n1 please.
40.8 µM

Please give measured TGI of the following entry: Cc1[nH]c(=O)nc(N(CCO)/N=C/c2ccccc2Cl)c1C(=O)Nc1cc(Cl)cc(Cl)c1
59.4 µM

Report TGI, nothing else, for this molecule: O=C1C2C3C=CC(C2C(=O)N1COP(=O)(O)O)C1C2C(=O)N(COP(=O)(O)O)C(=O)C2C31 (centres undefined)
> 57.6 µM

Return the recorded TGI value; entry: Cc1ccc(O)c(-c2cc(-c3cccc(Cl)c3)c(C#N)c(N)n2)c1
30.1 µM

Given the molecule CCN1CCN(c2nc3ccc([N+](=O)[O-])cc3nc2C(=O)c2ccccc2)CC1 , write its reported TGI.
31.2 µM

Fill in TGI for record N#C/C(=C\NC(=S)c1ccncc1)c1nc2ccccc2s1
> 100 µM

Please report TGI for the following molecule: CC(C)(C)c1cc(C2=NN(c3ccccc3)C(c3ccccc3)C2)cc(C(C)(C)C)c1O (centres undefined)
> 100 µM

Give TGI for c1cc(CNCCN2CCNCC2)ccn1
> 100 µM

Specify TGI for COc1ccc(C(SCCO)(c2ccccc2)c2ccccc2)cc1 and stop.
23.7 µM

====

Tested on: K-562 leukemia
Experiment: NCI tumour cell line growth inhibition, 48 h
Outcome Measure: TGI

In the examples that follow, each entry is paired with its recorded TGI.
| Compound | Target Or System | TGI |
| --- | --- | --- |
| CCCCCCCCCCCCCC[S+](C)C | K-562 leukemia | 4.68 µM |
| O=C(O)c1cccc(N=Nc2c(S(=O)(=O)O)ccc3c2C(=O)c2ccccc2C3=O)c1O | K-562 leukemia | > 100 µM |
| CCOC(=O)C(Cl)(NC(=O)c1c(F)c(F)c(F)c(F)c1F)C(F)(F)F (stereo not given) | K-562 leukemia | > 100 µM |
| Nc1[nH]c(=S)nc2snnc12 | K-562 leukemia | > 100 µM |

Annotate the compound COc1ccc(-c2nc3ccccn3c2/C=C/C(=O)c2cc(OC)c(OC)c(OC)c2)cc1 with its measured TGI.
> 100 µM

Report TGI, nothing else, for this compound: CCOC(=O)C(O)(NC(=O)c1ccccc1F)C(F)(F)F (stereo not given)
> 100 µM

Specify measured TGI for O=C1C2C3C=CC(C2C(=O)N1COP(=O)(O)O)C1C2C(=O)N(COP(=O)(O)O)C(=O)C2C31 (stereo not given) .
> 100 µM

Write down TGI measured for item O=S(=O)(O)ON=C1c2ccccc2-c2ccccc21
> 100 µM

Specify TGI for COc1ccc(/C=c2\sc3n(c2=O)C(N)=C(C#N)C(c2ccc(OC)cc2)C=3c2nc3ccccc3[nH]2)cc1 (stereo not given) and stop.
> 100 µM

Could you please provide reported TGI for COc1cc(OC)c(/C=C/c2cnc3ccccc3n2)c(OC)c1 ? Thanks!
> 10 µM

Read off the recorded TGI for COc1ccc2c(c1)C(=O)c1c-2c(Nc2ccc(Cl)cc2)nc2ccccc12
> 100 µM
